Origin of the recorded values: paper PMC4306626

assay: Pharmacokinetics in nude mice after single IP or PO dose; format: in vivo, athymic nude (Nu/Nu) mice; conditions: female, athymic nude (Nu/Nu), mouse, plasma, po, 20 mg/kg
experimental-endpoint: AUC(0-t) (ng·h/mL)
Write the number in ng·h/mL without appending the unit.

(Q) Reported AUC(0-t) for CCn1c2ccccc2c2cc(Nc3ccnc(NCCCN4CCOCC4)n3)ccc21 [EHop-016] : what is it?
(A) 257

* * *

assay: Pharmacokinetics in nude mice after single IP or PO dose; assay type: in vivo, athymic nude (Nu/Nu) mice; conditions: female, athymic nude (Nu/Nu), mouse, plasma, ip, 40 mg/kg
experimental-endpoint: Tmax (min)
Provide the reading as a plain figure in min.

(Q) For the compound shown here, CCn1c2ccccc2c2cc(Nc3ccnc(NCCCN4CCOCC4)n3)ccc21 , give the reported Tmax.
(A) 30
